Listed here are compounds together with their documented combination Emax.
- Test system: SNU-449 (Hepatocellular Carcinoma)
- Assay Protocol: combination Emax (second highest fraction inhibited in the dose matrix, 72 h); higher = more inhibition; extreme values may be limits of the assay
Write the number on its own, no unit after it.

(Q) Which combination Emax reading was recorded for the compound CN(CCO)CC[C@H](CSc1ccccc1)Nc1ccc(S(=O)(=O)NC(=O)c2ccc(N3CCC([C@@H](O)c4ccccc4-c4ccc(Cl)cc4)CC3)cc2)cc1S(=O)(=O)C(F)(F)F [AZD4320] + C1CN(CCC1(C(=O)N[C@@H](CCO)C2=CC=C(C=C2)Cl)N)C3=NC=NC4=C3C=CN4 [Capivasertib] (first compound max 1 µM, 7x7, partner max 3 µM) ?
(A) 0.0999

(Q) Then CN(CCO)CC[C@H](CSc1ccccc1)Nc1ccc(S(=O)(=O)NC(=O)c2ccc(N3CCC([C@@H](O)c4ccccc4-c4ccc(Cl)cc4)CC3)cc2)cc1S(=O)(=O)C(F)(F)F [AZD4320] + CCN(CCO)CCCOc1ccc2c(Nc3cc(CC(=O)Nc4cccc(F)c4)[nH]n3)ncnc2c1 [AZD2811] (first compound max 1 µM, 7x7, partner max 1 µM) ?
(A) 0.154

Kindly review the next compound as well.
(Q) Which combination Emax reading was recorded for the compound COc1nnc2ccc(N3CCC(c4ccc(OCCN5CCN(C)C(=O)[C@H]5C)cc4)CC3)nn12 [AZD5153] + Cn1cnc2c(F)c(Nc3ccc(Br)cc3Cl)c(C(=O)NOCCO)cc21 [Selumetinib] (first compound max 1 µM, 7x7, partner max 10 µM) ?
(A) 0.243

----------
- Test system: HuH-7 (Hepatocellular Carcinoma);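 further: after 72 h of two-drug dosing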
- Assay Protocol: Bliss excess, mean over the matrix (fraction); higher = more synergy
Measurement Kind: Bliss excess
Write the number on its own, no unit after it.

(Q) Which Bliss excess reading was recorded for the molecule CC(=O)c1c(C)c2cnc(Nc3ccc(N4CCNCC4)cn3)nc2n(C2CCCC2)c1=O [Palbociclib] + Cc1c2c(nn1C)CSCc1cc(n(C)n1)CSc1cc(c3ccccc3c1)OCCCc1c(C(=O)O)n(C)c3c-2c(Cl)ccc13 [AZD5991] (first compound max 10 µM, 7x7, partner max 1 µM) ?
(A) -0.011

(Q) Then COc1nnc2ccc(N3CCC(c4ccc(OCCN5CCN(C)C(=O)[C@H]5C)cc4)CC3)nn12 [AZD5153] + CC1(C)CCC(CN2CCN(c3ccc(C(=O)NS(=O)(=O)c4ccc(NCC5CCOCC5)c([N+](=O)[O-])c4)c(Oc4cnc5[nH]ccc5c4)c3)CC2)=C(c2ccc(Cl)cc2)C1 [Venetoclax] (first compound max 1 µM, 7x7, partner max 1 µM) ?
(A) -0.0987

(Q) Then CN(CCO)CC[C@H](CSc1ccccc1)Nc1ccc(S(=O)(=O)NC(=O)c2ccc(N3CCC([C@@H](O)c4ccccc4-c4ccc(Cl)cc4)CC3)cc2)cc1S(=O)(=O)C(F)(F)F [AZD4320] + C[C@@H](Nc1cc(F)cc(F)c1)c1cc(C(=O)N(C)C)cc2c(=O)cc(N3CCOCC3)oc12 [AZD8186] (first compound max 1 µM, 7x7, partner max 3 µM) ?
(A) 0.0262

(Q) Then CN(CCO)CC[C@H](CSc1ccccc1)Nc1ccc(S(=O)(=O)NC(=O)c2ccc(N3CCC([C@@H](O)c4ccccc4-c4ccc(Cl)cc4)CC3)cc2)cc1S(=O)(=O)C(F)(F)F [AZD4320] + C1CN(CCC1(C(=O)N[C@@H](CCO)C2=CC=C(C=C2)Cl)N)C3=NC=NC4=C3C=CN4 [Capivasertib] (first compound max 1 µM, 7x7, partner max 3 µM) ?
(A) -0.0402

(Q) Then COc1cccc(OCCCN)c1-c1cc(Nc2cnc(C#N)cn2)n[nH]1 [Prexasertib] + C=CCn1c(=O)c2cnc(Nc3ccc(N4CCN(C)CC4)cc3)nc2n1-c1cccc(C(C)(C)O)n1 [AZD1775] (first compound max 1 µM, partner max 1 µM) ?
(A) 0.0469
